system: Staphylococcus aureus (MSSA); conditions: 24 h
Starred links: 1 amine or outer side, 2 acyl side, 3 side chain; linkers in the order of their positions; H or OH if unused. Positions of bridges follow the written chain, without caps; N, C: chain ends. Non-standard residues stand in square brackets, D forms with d. Residues, ends and D or L forms follow the SMILES beside them. ξ: configuration not given here. *: point of attachment. ξAbu(βξ-NH2) = CC(N[*:3])C(N[*:1])C(=O)[*:2]; Benzoyl(4-tBu) = CC(C)(C)c1ccc(C(=O)*)cc1; ξAsp(βξ-Me) = CC(C(=O)O)C(N)C(=O)O; ξAbu(3ξ-NH2) = CC(N)C(N)C(=O)O; Pip = O=C(O)[CH]1CCCCN1

compound	MIC
CC(C)C1NC(=O)C(C(C)N)NC(=O)CNC(=O)C(CC(=O)O)NC(=O)CNC(=O)C(CC(=O)O)NC(=O)C(C(C)C(=O)O)NC(=O)C2CCCCN2C(=O)C(NC(=O)C(CC(=O)O)NC(=O)c2ccc(C(C)(C)C)cc2)C(C)NC(=O)C2CCCN2C1=O (stereo not drawn) [Compound 326, (4-Tbutylbenzoyl)-Amphomycin] ({Benzoyl(4-tBu)}-D[ξAbu(βξ-NH2)][Pip][ξAsp(βξ-Me)]DGDG[ξAbu(3ξ-NH2)]VP; lactam 2-C; configuration not given here)	>64 µg/mL
CCCCCCCCCCCCCCNC(=O)NC(CC(=O)O)C(=O)NC1C(=O)N2CCCCC2C(=O)NC(C(C)C(=O)O)C(=O)NC(CC(=O)O)C(=O)NCC(=O)NC(CC(=O)O)C(=O)NCC(=O)NC(C(C)NC(=O)CNC(=O)[C@@H](N)CCCCN)C(=O)NC(C(C)C)C(=O)N2CCCC2C(=O)NC1C (stereo partly drawn) [Compound 277]	0.5 to 1 µg/mL
CCCCCCCCCCCCCCNC(=O)NC(CC(=O)O)C(=O)NC1C(=O)N2CCCCC2C(=O)NC(C(C)C(=O)O)C(=O)NC(CC(=O)O)C(=O)NCC(=O)NC(CC(=O)O)C(=O)NCC(=O)NC(C(C)N)C(=O)NC(C(C)C)C(=O)N2CCCC2C(=O)NC1C (stereo not drawn) [Compound 253, CH3—(CH2)13—NH—C(═O)-Amphomycin]	0.5 to 1 µg/mL

* * *

test system: Staphylococcus aureus (MSSA); details: 24 h

molecule	measured-target	MIC
CCCCCCCCCCCCCCCCNC(=O)NC(CC(=O)O)C(=O)NC1C(=O)N2CCCCC2C(=O)NC(C(C)C(=O)O)C(=O)NC(CC(=O)O)C(=O)NCC(=O)NC(CC(=O)O)C(=O)NCC(=O)NC(C(C)N)C(=O)NC(C(C)C)C(=O)N2CCCC2C(=O)NC1C (stereo not shown)	Staphylococcus aureus (MSSA)	2 to 4 µg/mL
CCCCCCCCCCCCCCC(=O)NC(CC(=O)O)C(=O)NC1C(=O)N2CCCCC2C(=O)NC(C(C)C(=O)O)C(=O)NC(CC(=O)O)C(=O)NCC(=O)NC(CC(=O)O)C(=O)NCC(=O)NC(C(C)NC(=O)CCC(=O)O)C(=O)NC(C(C)C)C(=O)N2CCCC2C(=O)NC1C (stereo not shown)	Staphylococcus aureus (MSSA)	>64 µg/mL
CCCCCCCCCCCCCCC(=O)NC(CC(=O)O)C(=O)NC1C(=O)N2CCCCC2C(=O)NC(C(C)C(=O)O)C(=O)NC(CC(=O)O)C(=O)NCC(=O)NC(CC(=O)O)C(=O)NCC(=O)NC(C(C)NC(=O)[C@@H](N)CC(C)C)C(=O)NC(C(C)C)C(=O)N2CCCC2C(=O)NC1C (stereo partly shown)	Staphylococcus aureus (MSSA)	16 to 32 µg/mL
CCCCCCCCCCC(=O)NC(CC(=O)O)C(=O)NC1C(=O)N2CCCCC2C(=O)NC(C(C)C(=O)O)C(=O)NC(CC(=O)O)C(=O)NCC(=O)NC(CC(=O)O)C(=O)NCC(=O)NC(C(C)N)C(=O)NC(C(C)C)C(=O)N2CCCC2C(=O)NC1C (stereo not shown)	Staphylococcus aureus (MSSA)	32 to 64 µg/mL

* * *

In this section, each of the compounds is paired with its reported MIC.
System: Staphylococcus aureus (MSSA)
Conditions: 24 h
Description: (“Approved Standard M7-A3”). The antimicrobial lipopeptide derivatives described herein were tested for antimicrobial activity against Gram-positive bacteria as follows. The minimum inhibitory concentrations (MIC) of the antimicrobial lipopeptide derivatives of the invention were determined using NCCLS guidelines M7-A6 (2003) with a slight modification in that doubling serial dilutions were used to dilute the test compounds. The broth phase microdilution method was used. […]
Starred links: 1 amine or outer side, 2 acyl side, 3 side chain; linkers in the order of their positions; H or OH if unused. Positions of bridges follow the written chain, without caps; N, C: chain ends. Non-standard residues stand in square brackets, D forms with d. Residues, ends and D or L forms follow the SMILES beside them. ξ: configuration not given here. *: point of attachment. Hexadecanesulfonyl = CCCCCCCCCCCCCCCCS(=O)(=O)*; ξAbu(βξ-NH2) = CC(N[*:3])C(N[*:1])C(=O)[*:2]; ξAsp(βξ-Me) = CC(C(=O)O)C(N)C(=O)O; ξAbu(3ξ-NH2) = CC(N)C(N)C(=O)O; X32 = CC(C)CCCCCC/C=C\C(=O)*; Pip = O=C(O)[CH]1CCCCN1
reported-property: MIC

compound	result
CC(C)CCCCCC/C=C\C(=O)NC(CC(=O)O)C(=O)NC1C(=O)N2CCCCC2C(=O)NC(C(C)C(=O)O)C(=O)NC(CC(=O)O)C(=O)NCC(=O)NC(CC(=O)O)C(=O)NCC(=O)NC(C(C)N)C(=O)NC(C(C)C)C(=O)N2CCCC2C(=O)NC1C (stereo not drawn) [Compound 364, (10-Methyl-Undec-2-Enoyl)-Amphomycin] (X32-D[ξAbu(βξ-NH2)][Pip][ξAsp(βξ-Me)]DGDG[ξAbu(3ξ-NH2)]VP; lactam 2-C; configuration not given here)	4 to 8 µg/mL
CCCCCCCCCCCCCCC(=O)NC(CC(=O)O)C(=O)NC1C(=O)N2CCCCC2C(=O)NC(C(C)C(=O)O)C(=O)NC(CC(=O)O)C(=O)NCC(=O)NC(CC(=O)O)C(=O)NCC(=O)NC(C(C)NC(=O)CCNC(=O)[C@@H](N)CCCN)C(=O)NC(C(C)C)C(=O)N2CCCC2C(=O)NC1C (stereo partly drawn) [Compound 148, C15-Amphomycin-9-(β-Ala)-Orn]	0.5 to 1 µg/mL
CCCCCCCCCCCCCCCCS(=O)(=O)NCC(=O)NC(CC(=O)O)C(=O)NC1C(=O)N2CCCCC2C(=O)NC(C(C)C(=O)O)C(=O)NC(CC(=O)O)C(=O)NCC(=O)NC(CC(=O)O)C(=O)NCC(=O)NC(C(C)N)C(=O)NC(C(C)C)C(=O)N2CCCC2C(=O)NC1C (stereo not drawn) [Compound 99, CH3—(CH2)15—SO2-Gly-Amphomycin] (Hexadecanesulfonyl-GD[ξAbu(βξ-NH2)][Pip][ξAsp(βξ-Me)]DGDG[ξAbu(3ξ-NH2)]VP; lactam 3-C; configuration not given here)	0.5 to 1 µg/mL
CCCCCCCCCCCCCCC(=O)NC(CC(=O)O)C(=O)NC1C(=O)N2CCCCC2C(=O)NC(C(C)C(=O)O)C(=O)NC(CC(=O)O)C(=O)NCC(=O)NC(CC(=O)O)C(=O)NCC(=O)NC(C(C)NC(=O)CNC(=O)[C@@H](N)C(C)C)C(=O)NC(C(C)C)C(=O)N2CCCC2C(=O)NC1C (stereo partly shown) [Compound 37, C15-Amphomycin-9-Gly-Val]	2 to 4 µg/mL

* * *

system: Staphylococcus aureus (MSSA); conditions: 24 h
Starred links: 1 amine or outer side, 2 acyl side, 3 side chain; linkers in the order of their positions; H or OH if unused. Positions of bridges follow the written chain, without caps; N, C: chain ends. Non-standard residues stand in square brackets, D forms with d. Residues, ends and D or L forms follow the SMILES beside them. ξ: configuration not given here. *: point of attachment. ξAbu(βξ-NH2) = CC(N[*:3])C(N[*:1])C(=O)[*:2]; Pentadecanoyl = CCCCCCCCCCCCCCC(=O)*; ξAsp(βξ-Me) = CC(C(=O)O)C(N)C(=O)O; X13 = O=C(CCCCCCCCCCOc1ccccc1)*; Pip = O=C(O)[CH]1CCCCN1
In this section, each of the molecules is paired with its reported MIC.

molecule	MIC
CCCCCCCCCCCCCCC(=O)NC(CC(=O)O)C(=O)NC1C(=O)N2CCCCC2C(=O)NC(C(C)C(=O)O)C(=O)NC(CC(=O)O)C(=O)NCC(=O)NC(CC(=O)O)C(=O)NCC(=O)NC(C(C)NC(=O)CCCCCCCCCCOc2ccccc2)C(=O)NC(C(C)C)C(=O)N2CCCC2C(=O)NC1C (stereo not drawn) [Compound 348, C15-Amphomycin-9-(11-Phenoxyundecanoyl)] (Pentadecanoyl-D[ξAbu(βξ-NH2)][Pip][ξAsp(βξ-Me)]DGDG[ξAbu(βξ-NH2)](X13)VP; lactam 2-C; configuration not given here)	>64 µg/mL
CCCCCCCCCCCCC(=O)NC(CC(=O)O)C(=O)NC1C(=O)N2CCCCC2C(=O)NC(C(C)C(=O)O)C(=O)NC(CC(=O)O)C(=O)NCC(=O)NC(CC(=O)O)C(=O)NCC(=O)NC(C(C)N)C(=O)NC(C(C)C)C(=O)N2CCCC2C(=O)NC1C (stereo not shown) [Compound 9, C13-Amphomycin]	0.5 to 1 µg/mL
CCCCCCCCCC(=O)NC(CC(=O)O)C(=O)NC1C(=O)N2CCCCC2C(=O)NC(C(C)C(=O)O)C(=O)NC(CC(=O)O)C(=O)NCC(=O)NC(CC(=O)O)C(=O)NCC(=O)NC(C(C)N)C(=O)NC(C(C)C)C(=O)N2CCCC2C(=O)NC1C (stereo not shown) [Compound 6, C10-Amphomycin]	32 to 64 µg/mL
CCCCCCCCCCCCCCC(=O)NC(CC(=O)O)C(=O)NC1C(=O)N2CCCCC2C(=O)NC(C(C)C(=O)O)C(=O)NC(CC(=O)O)C(=O)NCC(=O)NC(CC(=O)O)C(=O)NCC(=O)NC(C(C)NC(=O)[C@H]2CCCN2)C(=O)NC(C(C)C)C(=O)N2CCCC2C(=O)NC1C (stereo partly drawn) [Compound 67, C15-Amphomycin-9-(D-Pro)]	1 to 2 µg/mL
